tested on: Fibroblast; experiment: Incucyte cell viability with human fibroblast; format: toxicity, cell-based; settings: 0 h, 10 µM, compound concentration 10 uM, replicate number 1; further: unitless GR value; below 1 slowed growth and below 0 cell loss
PROPERTY_MEASURED: Growth Rate
// keep it numeric: no unit symbol after the value

CN[C@@H](C)C(=O)N[C@H](C(=O)N1CCC[C@H]1C(=O)Nc1snnc1-c1ccccc1)C1CCCCC1 : -0.28
O=C1c2c(Br)c(Br)c(Br)c(Br)c2C(=O)N1c1ncc[nH]1 : 0.94
CCS(=O)(=O)Nc1cccc(Oc2cc(F)cc(Nc3ccc(I)cc3F)c2NS(=O)(=O)C2CC2)c1 : -1
c1ccc(C2CCN(c3cnc4c(N5CCOCC5)nccn34)CC2)cc1 : -0.87
C[C@H](CCOc1cccc(CC(=O)O)c1)N(Cc1cccc(C(F)(F)F)c1Cl)CC(c1ccccc1)c1ccccc1.Cl : 0.93
Cl.Cl.O=[N+]([O-])c1ccc(CN2CCOCCOCCN(Cc3ccc([N+](=O)[O-])cc3)CCOCC2)cc1 : 0.74
CC[C@H](Nc1ncnc2[nH]cnc12)c1nc2cccc(F)c2c(=O)n1-c1ccccc1 : 0.15
COC[C@H](O)Cn1c(=O)cnn(-c2ccc(Cl)c(C(=O)NCC3(O)CCCCCC3)c2)c1=O : -0.26
Fc1ccc(-c2nc(-c3c(F)cccc3F)[nH]c2-c2ccncc2)cc1 : -0.99
C=C[C@H]1C[N@@]2CC[C@H]1C[C@@H]2[C@@H](O)c1ccnc2ccc(OC)cc12 : -0.43

**Query** Look up Growth Rate: COc1ccc(C(F)(F)F)cc1NC(=O)Nc1ccc(Oc2cc(C)nc(N)n2)c2ccccc12
**Result** -1

**Query** Field request: Growth Rate | item: CCOc1ccc(S(=O)(=O)Nc2ccc(Cl)cc2C#Cc2cnc(C(=O)[O-])cc2OC)c2ncccc12.[K+]
**Result** -0.78
